- Organism: Rattus norvegicus
- test_details: DrugMatrix - Regimen: Daily Repeat
- Format: toxicity, organism-based, Sprague-Dawley
- Design: regimen Daily Repeat, gender Male, age 6-8 weeks
- run_conditions: in vivo, po, 0 mg/kg, 72 h, tissue Blood, route oral GAVAGE, dose level Control, time 3 day, vehicle 100 % WATER
observed_property: MEAN CORPUSCULAR HEMOGLOBIN (pg)
Respond numerically; units are pg and should not be typed.

Examples from the recorded data:
compound="CCN(CC)CCNC(=O)c1cc(S(C)(=O)=O)ccc1OC [TIAPRIDE]" observed_property="MEAN CORPUSCULAR HEMOGLOBIN" assay_result=23.88
compound="O.O.O.O.O.O.[Cl-].[Cl-].[Sr+2] [STRONTIUM CHLORIDE HEXAHYDRATE]" observed_property="MEAN CORPUSCULAR HEMOGLOBIN" assay_result=23.88
compound="NNc1nncc2ccccc12 [HYDRALAZINE]" observed_property="MEAN CORPUSCULAR HEMOGLOBIN" assay_result=24.42
compound="CN(C)CC[C@@H](c1ccc(Cl)cc1)c1ccccn1 [DEXCHLORPHENIRAMINE]" observed_property="MEAN CORPUSCULAR HEMOGLOBIN" assay_result=25.92
compound="CS(=O)(=O)c1ccc([C@@H](O)[C@@H](CO)NC(=O)C(Cl)Cl)cc1 [THIAMPHENICOL]" observed_property="MEAN CORPUSCULAR HEMOGLOBIN" assay_result=23.88
compound="Cc1ccc(NC(=O)c2ccc(CN3CCN(C)CC3)cc2)cc1Nc1nccc(-c2cccnc2)n1 [IMATINIB]" observed_property="MEAN CORPUSCULAR HEMOGLOBIN" assay_result=23.88
compound="CC(C)(C)CC(C)(C)c1ccc(OCCOCC[N+](C)(C)Cc2ccccc2)cc1.[Cl-] [BENZETHONIUM CHLORIDE]" observed_property="MEAN CORPUSCULAR HEMOGLOBIN" assay_result=24.42
compound="CC(C)NCC(O)c1ccc(NS(C)(=O)=O)cc1 (stereo not given) [SOTALOL]" observed_property="MEAN CORPUSCULAR HEMOGLOBIN" assay_result=24.8
compound="Oc1cccc(O)c1O [PYROGALLOL]" observed_property="MEAN CORPUSCULAR HEMOGLOBIN" assay_result=24.38

Then there is this compound:
Can you look up the measured MEAN CORPUSCULAR HEMOGLOBIN of CN1[C@@H]2CC[C@H]1C[C@@H](OC(=O)C(CO)c1ccccc1)C2 (stereo not given in full) [ATROPINE] for me?
25.67

###

Overview of reported MEAN CORPUSCULAR HEMOGLOBIN across a group of compounds:
- Species: Rattus norvegicus
- test_details: DrugMatrix - Regimen: Daily Repeat
- Format: toxicity, organism-based, Sprague-Dawley
- Parameters: regimen Daily Repeat, gender Male, age 6-8 weeks
- run_conditions: in vivo, po, 0 mg/kg, 72 h, tissue Blood, route oral GAVAGE, dose level Control, time 3 day, vehicle .5 % CMC
Respond numerically; units are pg and should not be typed.

Examples from the recorded data:
compound=CC(=O)Oc1ccc(C(c2ccc(OC(C)=O)cc2)c2ccccn2)cc1 observed_property="MEAN CORPUSCULAR HEMOGLOBIN" assay_result=23.64
compound="O=C1C(CC[S+]([O-])c2ccccc2)C(=O)N(c2ccccc2)N1c1ccccc1 (stereo not drawn)" observed_property="MEAN CORPUSCULAR HEMOGLOBIN" assay_result=24.6

Then there is this compound:
Can you look up the measured MEAN CORPUSCULAR HEMOGLOBIN of NCCCC(O)(P(=O)(O)O)P(=O)(O)O for me?
23.58

###

- Organism: Rattus norvegicus
- test_details: DrugMatrix - Regimen: Daily Repeat
- Assay type: toxicity, organism-based, Sprague-Dawley
- Design: regimen Daily Repeat, gender Male, age 6-8 weeks
- run_conditions: in vivo, po, 0 mg/kg, 72 h, tissue Blood, route oral GAVAGE, dose level Control, time 3 day, vehicle .5 % CMC
Overview of reported EOSINOPHIL across a group of compounds:
Respond numerically; units are % and should not be typed.

Examples from the recorded data:
compound="CN(C/C=C/C#CC(C)(C)C)Cc1cccc2ccccc12 [TERBINAFINE]" observed_property=EOSINOPHIL assay_result=0.4
compound="NC1CCN(c2nc3c(cc2F)c(=O)c(C(=O)O)cn3-c2ccc(F)cc2F)C1 (configuration not stated) [TOSUFLOXACIN]" observed_property=EOSINOPHIL assay_result=0.4
compound="CCN(CC)CCOc1ccc(/C(=C(/Cl)c2ccccc2)c2ccccc2)cc1 [ENCLOMIPHENE]" observed_property=EOSINOPHIL assay_result=1.33
compound="CC(C(=O)O)c1ccc2oc(-c3ccc(Cl)cc3)nc2c1 (configuration not stated) [BENOXAPROFEN]" observed_property=EOSINOPHIL assay_result=0.62
compound="CNCCC(Oc1ccc(C(F)(F)F)cc1)c1ccccc1 (configuration not stated) [FLUOXETINE]" observed_property=EOSINOPHIL assay_result=0

Can you look up the measured EOSINOPHIL of O=C1CN=C(c2ccccc2Cl)c2cc([N+](=O)[O-])ccc2N1 [CLONAZEPAM] for me?
0

Can you look up the measured EOSINOPHIL of COC1=C(OC)C(=O)C(CCCCCCCCCCO)=C(C)C1=O [IDEBENONE] for me?
0

###

- Species: Rattus norvegicus
- test_details: DrugMatrix - Regimen: Daily Repeat
- Type: toxicity, organism-based, Sprague-Dawley
- Set-up: regimen Daily Repeat, gender Male, age 6-8 weeks
- run_conditions: in vivo, po, 0 mg/kg, 120 h, tissue Plasma, route oral GAVAGE, dose level Control, time 5 day, vehicle .5 % CMC
Overview of reported POTASSIUM across a group of compounds:
Respond numerically; units are MEQ/L and should not be typed.

Examples from the recorded data:
compound=COC1=C(OC)C(=O)C(CCCCCCCCCCO)=C(C)C1=O units_text=MEQ/L assay_result=5.63
compound=O=C1CN=C(c2ccccc2Cl)c2cc([N+](=O)[O-])ccc2N1 units_text=MEQ/L assay_result=5.63
compound=C[C@H]1O[C@@H](n2cc(F)c(=O)[nH]c2=O)[C@H](O)[C@@H]1O units_text=MEQ/L assay_result=5.63
compound="CNCCC(Oc1ccc(C(F)(F)F)cc1)c1ccccc1 (stereo not given)" units_text=MEQ/L assay_result=6.27

Can you look up the measured POTASSIUM of CC(=O)Oc1ccc(C(c2ccc(OC(C)=O)cc2)c2ccccn2)cc1 for me?
6.85

###

Overview of reported HEMATOCRIT across a group of compounds:
- Species on record: Rattus norvegicus
- test_details: DrugMatrix - Regimen: Daily Repeat
- Assay type: toxicity, organism-based, Sprague-Dawley
- Set-up: regimen Daily Repeat, gender Male, age 6-8 weeks
- run_conditions: in vivo, po, 0 mg/kg, 72 h, tissue Blood, route oral GAVAGE, dose level Control, time 3 day, vehicle .5 % CMC

Examples from the recorded data:
compound="COC1=C(OC)C(=O)C(CCCCCCCCCCO)=C(C)C1=O [IDEBENONE]" observed_property=HEMATOCRIT assay_result=35.45%
compound="CNCCC(Oc1ccc(C(F)(F)F)cc1)c1ccccc1 (centres undefined) [FLUOXETINE]" observed_property=HEMATOCRIT assay_result=37.62%
compound="CC(=O)Oc1ccc(C(c2ccc(OC(C)=O)cc2)c2ccccn2)cc1 [BISACODYL]" observed_property=HEMATOCRIT assay_result=38.8%

Then there is this compound:
Can you look up the measured HEMATOCRIT of C[C@H]1O[C@@H](n2cc(F)c(=O)[nH]c2=O)[C@H](O)[C@@H]1O [DOXIFLURIDINE] for me?
35.45%

###

- Species on record: Rattus norvegicus
- test_details: DrugMatrix - Regimen: Daily Repeat
- Type: toxicity, organism-based, Sprague-Dawley
- Set-up: regimen Daily Repeat, gender Male, age 6-8 weeks
- run_conditions: in vivo, po, 0 mg/kg, 120 h, tissue Blood, route oral GAVAGE, dose level Control, time 5 day, vehicle .5 % CMC
observed_property: MONOCYTE (%)
Respond numerically; units are % and should not be typed.

compound="COc1ccc(C2C(=O)c3ccccc3C2=O)cc1 [ANISINDIONE]" assay_result=1.67
compound="COc1cc2nc(N3CCN(C(=O)c4ccco4)CC3)nc(N)c2cc1OC [PRAZOSIN]" assay_result=0.83
compound="CN(C/C=C/C#CC(C)(C)C)Cc1cccc2ccccc12 [TERBINAFINE]" assay_result=0.2
compound="NCCCC(O)(P(=O)(O)O)P(=O)(O)O [ALENDRONIC ACID]" assay_result=1.67
compound="COC1=C(OC)C(=O)C(CCCCCCCCCCO)=C(C)C1=O [IDEBENONE]" assay_result=1.83
compound="O=C1C(CC[S+]([O-])c2ccccc2)C(=O)N(c2ccccc2)N1c1ccccc1 (stereo not drawn) [SULFINPYRAZONE]" assay_result=0.83
compound="CC(=O)Oc1ccc(C(c2ccc(OC(C)=O)cc2)c2ccccn2)cc1 [BISACODYL]" assay_result=4.33
compound="O=C1CN=C(c2ccccc2Cl)c2cc([N+](=O)[O-])ccc2N1 [CLONAZEPAM]" assay_result=1.83

Then there is this compound:
Can you look up the measured MONOCYTE of CN/C(=N/CCSCc1nc[nH]c1C)NC#N [CIMETIDINE] for me?
1.83
